# measurement setup: buffer; pH 7.4; 200.0 µM

>  <compound>
Cc1cc(C(=O)N2CCN(c3ccccc3O)CC2)c(C)o1

>  <solubility kinetic>
> 45.1 µg/mL

$$$$
>  <compound>
COc1ccc(C(C)(C)C)cc1NC(=O)C1CCCO1 (configuration not stated)

>  <solubility kinetic>
41.5 µg/mL

$$$$
>  <compound>
N#Cc1c(NC(=O)CCC(=O)O)sc2c1CCCCC2

>  <solubility kinetic>
> 43.9 µg/mL

$$$$
>  <compound>
CCN1CCN(C(=O)c2[nH]c3ccc(OC)cc3c2C)CC1

>  <solubility kinetic>
> 45.2 µg/mL

$$$$
>  <compound>
O=C(CCC(=O)OCC(F)(F)C(F)F)Nc1ccccc1F

>  <solubility kinetic>
> 48.8 µg/mL

$$$$
>  <compound>
COc1nc2ccccc2nc1CCC(=O)O

>  <solubility kinetic>
> 34.8 µg/mL

$$$$
>  <compound>
CC(C)Oc1ccc(/C=C/C(=O)NCC2COc3ccccc3O2)cc1 (configuration not stated)

>  <solubility kinetic>
2.8 µg/mL

$$$$
>  <compound>
CC1=C(C)C(O)N(Cc2ccccc2)C1=O (configuration not stated)

>  <solubility kinetic>
> 32.6 µg/mL

$$$$
>  <compound>
CCc1cccc(NS(=O)(=O)c2ccc3c(c2)n(C)c(=O)n3C)c1

>  <solubility kinetic>
3.4 µg/mL

$$$$
>  <compound>
Cc1ccc(C(=O)CNc2cc(C)ccc2C)cc1

>  <solubility kinetic>
< 0.5 µg/mL

$$$$
>  <compound>
COc1cc(SC)ccc1C(=O)OCC(=O)NCC(C)C

>  <solubility kinetic>
> 46.7 µg/mL

$$$$
>  <compound>
CCc1nc2oc3ccccc3c(=O)c2cc1C(=O)OC

>  <solubility kinetic>
4.2 µg/mL

$$$$
